Answer each item with its documented self-cleavage.
B1: HDV Ribozyme (parent)
chain: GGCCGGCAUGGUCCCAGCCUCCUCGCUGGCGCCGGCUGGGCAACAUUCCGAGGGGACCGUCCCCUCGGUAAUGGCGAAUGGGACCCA

Variants of: B1
Protocol Summary: self-cleavage, relative activity (ratio to wild type); higher = more cleavage; co-transcriptional
I only need the number, thanks.

For the variant G55C U60A , give its reported self-cleavage.
1.05

For the variant G31U C61G , give its reported self-cleavage.
0.332

For the variant G40A U65A , give its reported self-cleavage.
0.914

For the variant G34U G59C , give its reported self-cleavage.
0.142

For the variant C15U G55C , give its reported self-cleavage.
0.895

For the variant G50A G55C , give its reported self-cleavage.
0.81

For the variant C33G C48A , give its reported self-cleavage.
0

For the variant G39C G80U , give its reported self-cleavage.
0.101

For the variant G25U A77C , give its reported self-cleavage.
0.0504

For the variant U9C , give its reported self-cleavage.
1.04

For the variant G5A G52A , give its reported self-cleavage.
0.227

For the variant A8G G28C , give its reported self-cleavage.
0

For the variant C58G U79C , give its reported self-cleavage.
0.366

For the variant G52A G68U , give its reported self-cleavage.
0.591

For the variant G11U U46C , give its reported self-cleavage.
0.135

For the variant A16U C30U , give its reported self-cleavage.
0.68

For the variant G82C C84U , give its reported self-cleavage.
0.166

For the variant U27C G29A , give its reported self-cleavage.
0.125

For the variant G25A G40U , give its reported self-cleavage.
0.161

For the variant C13U A78U , give its reported self-cleavage.
0

For the variant C32U G59C , give its reported self-cleavage.
0.734

For the variant G74U A78U , give its reported self-cleavage.
0.332

For the variant U60G C64U , give its reported self-cleavage.
0.897

For the variant G2A G67C , give its reported self-cleavage.
0.0536

For the variant U46C C63G , give its reported self-cleavage.
0.72

For the variant G6C C18A , give its reported self-cleavage.
0.0791

For the variant C3U C64A , give its reported self-cleavage.
0.518

For the variant G31A G40A , give its reported self-cleavage.
0.233

For the variant A8U A71C , give its reported self-cleavage.
0.703

For the variant G2C G38U , give its reported self-cleavage.
0.0764

For the variant A43U G76A , give its reported self-cleavage.
0.554

For the variant G17A G67C , give its reported self-cleavage.
0.659

For the variant C18A C36A , give its reported self-cleavage.
0.0361

For the variant G1C C63A , give its reported self-cleavage.
0.201

For the variant A42C G55U , give its reported self-cleavage.
0.409

For the variant C14G G59U , give its reported self-cleavage.
0.745

For the variant U12A C44U , give its reported self-cleavage.
0

For the variant C22U A56G , give its reported self-cleavage.
0.895

For the variant G38A C61G , give its reported self-cleavage.
0.138

For the variant C19A G50C , give its reported self-cleavage.
0.0923

For the variant C7G G82C , give its reported self-cleavage.
0

For the variant G29A A71C , give its reported self-cleavage.
0.089

For the variant C13U C66A , give its reported self-cleavage.
0.54

For the variant U9G G29A , give its reported self-cleavage.
0.123

For the variant C7U G53A , give its reported self-cleavage.
0.964

For the variant G28A A87U , give its reported self-cleavage.
0.0932
